# SYSTEM NAME: Nuclear receptor ROR-gamma (Homo sapiens)
# METHOD NOTES: qHTS assay to identify small molecule antagonists of the retinoid-related orphan receptor gamma (ROR-gamma) signaling pathway (AID 1159521;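 further: CHO cells with doxycycline inducible ROR-gamma driving an RORE luciferase reporter; top concentration of the series differs between compounds; on the % scale 0 is the no-effect control and ±100 the full control effect; nearly all actives have a fitted effect of over 50% in size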)
# APPLIED CONDITIONS: Tet-on RORgamma CHO cells, RORE-luciferase, 16 h; series mostly up to 92.4 µM
Inconclusive results are not listed. Activity calls are given as the source filed them. The call rests on the fitted dose curve; in most records, active means well fitted inhibition curve with a large enough effect in the repeat runs; inconclusive means weak or mixed curves, or effect the other way; inactive means no such curve, though single readings can be large or run the other way.
Please reply with one of these outcomes: active, inactive

// return assay outcome for O=C(O)Cc1ccc(OCCNC[C@H](O)c2ccccc2)cc1
inactive

###

# SYSTEM NAME: Estrogen receptor beta (Homo sapiens) (UniProt Q92731)
# Sequence (Q92731 whole entry, looked up): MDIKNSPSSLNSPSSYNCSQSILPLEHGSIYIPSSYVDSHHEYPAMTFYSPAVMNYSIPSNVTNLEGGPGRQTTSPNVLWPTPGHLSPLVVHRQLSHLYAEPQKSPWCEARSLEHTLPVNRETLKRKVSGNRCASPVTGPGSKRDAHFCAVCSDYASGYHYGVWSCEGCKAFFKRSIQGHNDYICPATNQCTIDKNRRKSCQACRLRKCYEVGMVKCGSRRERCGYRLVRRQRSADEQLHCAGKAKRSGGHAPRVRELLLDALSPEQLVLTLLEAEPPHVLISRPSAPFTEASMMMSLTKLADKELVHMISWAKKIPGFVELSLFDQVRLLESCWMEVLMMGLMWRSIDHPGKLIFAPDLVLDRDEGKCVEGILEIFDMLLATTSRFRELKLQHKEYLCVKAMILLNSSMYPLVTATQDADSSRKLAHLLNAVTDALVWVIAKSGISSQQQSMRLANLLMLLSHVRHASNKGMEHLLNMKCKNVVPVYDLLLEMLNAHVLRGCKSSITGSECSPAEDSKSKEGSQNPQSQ
# METHOD NOTES: qHTS assay to identify small molecule antagonists of the estrogen receptor beta (ER-beta) signaling pathway (AID 1259378); further: potency means the concentration at half of the fitted maximal effect
# APPLIED CONDITIONS: ER-beta-UAS-bla HEK293T, beta-lactamase FRET ratio, 16 h; series mostly up to 92.4 µM
Results filed as inconclusive are left out. Calls of active or inactive are those of the source. Calls follow the shape of the dose curve; as a rule, active = well fitted inhibition curve with a large enough effect in the signal ratio in the repeat runs (not every such curve was filed as active); inconclusive = weak or mixed curves, or effect the other way; inactive = no such curve, though single readings can be large or run the other way; the % refers to the signal ratio.
TEST READOUT: Potency

Below are worked cases with known answers.
COMPOUND | SYSTEM NAME | Potency
O=C1OC(=O)c2cccc3cccc1c23 | Estrogen receptor beta (Homo sapiens) (UniProt Q92731) | inactive
Cn1cnc2ncnc(N)c21 | Estrogen receptor beta (Homo sapiens) (UniProt Q92731) | inactive
CC(=O)c1ccccc1N | Estrogen receptor beta (Homo sapiens) (UniProt Q92731) | inactive
COC(=O)CC#N | Estrogen receptor beta (Homo sapiens) (UniProt Q92731) | inactive
O=C(O)CC(=O)O | Estrogen receptor beta (Homo sapiens) (UniProt Q92731) | inactive

Provide only the value of recorded Potency for C[Si](C)O[Si](C)C
inactive

Provide only the value of recorded Potency for CCOC(/C=C(\C)CCC=C(C)C)OCC
inactive

Provide only the value of recorded Potency for CCCCCCCC/C=C\CCCCCCCC(=O)OCCOC(=O)CCCCCCC/C=C\CCCCCCCC
inactive

Provide only the value of recorded Potency for C=C1C(C)(C)[C@@]2(Cl)C(Cl)[C@]1(Cl)C(Cl)(Cl)C2(Cl)Cl (stereo partly specified)
30.1 µM (active)

Provide only the value of recorded Potency for CC(C)=CC1CC(C)CCO1 (stereo unspecified)
inactive

Provide only the value of recorded Potency for CN(C)CCN1CCOCC1
inactive

Provide only the value of recorded Potency for O=C1NC2CCCCN2C12CCN(CCCN1c3ccccc3CCc3ccc(Cl)cc31)CC2 (stereo unspecified)
23.7 µM (active)

Provide only the value of recorded Potency for C[Si](C)(C)Cl
inactive

Provide only the value of recorded Potency for C=CC(=O)OCCN(CC)CC
inactive

Provide only the value of recorded Potency for O=C1Nc2ccc(Cl)cc2[C@@](C#CC2CC2)(C(F)(F)F)O1
23.7 µM (active)

Provide only the value of recorded Potency for O=C(Nc1ccc(Cl)cc1)Nc1ccc(Cl)c(C(F)(F)F)c1
7.5 µM (active)

Provide only the value of recorded Potency for O=C(O)CCCCCCC(=O)O
inactive

###

# SYSTEM NAME: Cytochrome P450 2C19 (Homo sapiens)
# METHOD NOTES: Cytochrome P450 Family 2 Subfamily C Member 19 (CYP2C19) small molecule antagonists: luciferase reporter qHTS assay (AID 1671197); further: nearly all actives have a fitted effect of over 65% in size
# APPLIED CONDITIONS: P450-Glo CYP2C19 enzyme, luciferin luminescence, 1 h; series mostly up to 115 µM
Results filed as inconclusive are left out. Activity calls are given as the source filed them. The call rests on the fitted dose curve; in most records, active means well fitted inhibition curve with a large enough effect in the repeat runs; inconclusive means weak or mixed curves; inactive means no such curve, though single readings can be large or run the other way.
Please reply with one of these outcomes: class 1 (active), class 0 (inactive)

COMPOUND | CLASS NAME
CC(C)(C)c1cc(/C=C2\SC(=N)NC2=O)cc(C(C)(C)C)c1O | class 1
CCCCCCOc1ccc(O)cc1 | class 1
CCC(C)(C)c1cc(O)c(C(C)(C)CC)cc1O | class 1
CCN(CC)c1ccc(N)cc1 | class 1
CCOC(OCC)C(=O)c1ccccc1 | class 0

// return assay outcome for CCCC(O)C(O)CO (centres undefined)
class 0

// return assay outcome for CCCOc1sc(C(=O)N2CCC(c3cc(CN)ccc3F)CC2)c(C)c1Br
class 1

// return assay outcome for CC(C)N=C(N)/N=C(\N)Nc1ccc(Cl)cc1
class 1

// return assay outcome for CC(C)=C1CC[C@@H](C)CC1=O
class 0

// return assay outcome for CCNc1nc(NC(C)CC)nc(OC)n1 (centres undefined)
class 1

###

# SYSTEM NAME: Peroxisome proliferator-activated receptor delta (Homo sapiens) (UniProt Q03181)
# Sequence (Q03181 whole entry, looked up): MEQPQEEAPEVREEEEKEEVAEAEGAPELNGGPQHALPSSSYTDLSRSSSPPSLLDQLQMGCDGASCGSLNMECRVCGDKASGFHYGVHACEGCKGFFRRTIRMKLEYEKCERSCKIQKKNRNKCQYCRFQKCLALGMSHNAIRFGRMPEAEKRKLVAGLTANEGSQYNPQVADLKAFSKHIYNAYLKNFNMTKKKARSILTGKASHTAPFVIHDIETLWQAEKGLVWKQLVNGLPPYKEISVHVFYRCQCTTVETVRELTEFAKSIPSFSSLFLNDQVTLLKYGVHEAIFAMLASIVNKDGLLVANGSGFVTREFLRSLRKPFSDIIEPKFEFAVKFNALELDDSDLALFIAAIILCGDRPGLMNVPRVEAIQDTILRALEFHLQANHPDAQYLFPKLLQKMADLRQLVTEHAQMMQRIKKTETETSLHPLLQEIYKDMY
# METHOD NOTES: qHTS assay to identify small molecule antagonists of the peroxisome proliferator-activated receptor delta (PPARd) signaling pathway (AID 743215);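 further: cells stimulated with agonist L165041 at 300 nM final during compound exposure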
# APPLIED CONDITIONS: HEK293H PPARd-UAS-bla, beta-lactamase FRET ratio, antagonist, 17 h; series mostly up to 62 µM
Records with an inconclusive call do not appear. The source made the active and inactive calls. Calls follow the shape of the dose curve; as a rule, active = well fitted inhibition curve with a large enough effect in the signal ratio in the repeat runs (not every such curve was filed as active); inconclusive = weak or mixed curves, or effect the other way; inactive = no such curve, though single readings can be large or run the other way; the % refers to the signal ratio.
Please reply with one of these outcomes: active, inactive

COMPOUND | CLASS NAME
NC(=O)C(=O)N/N=C/c1ccc([N+](=O)[O-])o1 | inactive
O=C(Nc1ccc(Cl)cc1)Nc1ccc(Cl)c(C(F)(F)F)c1 | active
CC(C)c1ccc(O)c(C(C)C)c1 | inactive
CCCCCCCCCCCCCOP(=O)(O)O | inactive

// return assay outcome for ClC/C=C\CCl
inactive

// return assay outcome for Clc1ccc(C(c2ccccc2Cl)C(Cl)Cl)cc1 (configuration not stated)
inactive

// return assay outcome for CCC(C)(C)c1cc(O)c(C(C)(C)CC)cc1O
inactive

###

# METHOD NOTES: qHTS assay to test for compound auto fluorescence at 460 nm (blue) in HEK293 cell free culture (AID 720681); further: on the % scale 0 is the no-effect control and ±100 the full control effect
# APPLIED CONDITIONS: cell-free medium, autofluorescence 405/460 nm (blue); series mostly up to 91.3 µM
Activity calls are given as the source filed them. Calls come from the whole dose curve; as a rule, active = well fitted curve in the direction sought with a large enough effect in the repeat runs; inconclusive = weak or mixed curves; inactive = flat fitted curve, though single readings scatter.
TEST READOUT: fluorescence, % of fluorescent control

Below are worked cases with known answers.
COMPOUND | TEST READOUT | RESULT
C=CC(=C)CCC=C(C)C | fluorescence, % of fluorescent control | inactive
Clc1ccc(C(Cn2ccnc2)OCc2c(Cl)cccc2Cl)c(Cl)c1 (stereo unspecified) | fluorescence, % of fluorescent control | -0.0423% [at 18.6 µM] (inactive)
CSc1ccc2c(c1)N(CCC1CCCCN1C)c1ccccc1S2 (stereo unspecified) | fluorescence, % of fluorescent control | inactive
Cc1cccc(C)c1NC(=O)CN1CCN(CCCC(c2ccc(F)cc2)c2ccc(F)cc2)CC1 | fluorescence, % of fluorescent control | -0.178% [at 18.6 µM] (inactive)
CC(C)(C)c1cc(/C=C2\SC(=N)NC2=O)cc(C(C)(C)C)c1O | fluorescence, % of fluorescent control | inactive
CCCCNc1c(C(=O)OCC)c(C)nc2c1cnn2CC | fluorescence, % of fluorescent control | inactive
COc1cc(C(=O)NS(=O)(=O)c2ccccc2C)ccc1Cc1cn(C)c2ccc(NC(=O)OC3CCCC3)cc12 | fluorescence, % of fluorescent control | inactive
Brc1ccccc1-c1ccccc1 | fluorescence, % of fluorescent control | inactive

Provide only the value of recorded fluorescence, % of fluorescent control for CC1=C(/C=C/C(C)=C/C=C/C(C)=C\C=O)C(C)(C)CCC1
inactive

Provide only the value of recorded fluorescence, % of fluorescent control for COCC(=O)O[C@]1(CCN(C)CCCc2nc3ccccc3[nH]2)CCc2cc(F)ccc2[C@@H]1C(C)C
inactive

Provide only the value of recorded fluorescence, % of fluorescent control for S=C(SSSSSSC(=S)N1CCCCC1)N1CCCCC1
-0.263% [at 18.6 µM] (inactive)

Provide only the value of recorded fluorescence, % of fluorescent control for CCCCN(CCCC)CCC(O)c1cc2c(Cl)cc(Cl)cc2c2cc(C(F)(F)F)ccc12 (stereo unspecified)
-0.0401% [at 18.6 µM] (inactive)

Provide only the value of recorded fluorescence, % of fluorescent control for CCCCCCCCCC(=O)N(C)C
inactive

Provide only the value of recorded fluorescence, % of fluorescent control for COC(=O)CC(C)CCC=C(C)C (stereo unspecified)
inactive

Provide only the value of recorded fluorescence, % of fluorescent control for O=C1NCCN1CCN1CCC(c2cn(-c3ccc(F)cc3)c3ccc(Cl)cc23)CC1
inactive

Provide only the value of recorded fluorescence, % of fluorescent control for CN1[C@@H]2CC[C@@H]1CC(OC(=O)C(CO)c1ccccc1)C2 (stereo partly specified)
inactive

Provide only the value of recorded fluorescence, % of fluorescent control for CCCCCCCCCCCCCCNCCO
inactive

Provide only the value of recorded fluorescence, % of fluorescent control for CSc1c(Cl)c(Cl)c(Cl)c(Cl)c1Cl
inactive

Provide only the value of recorded fluorescence, % of fluorescent control for C[C@]12CC[C@H]3C(=CCc4cc(O)ccc43)[C@@H]1CCC2=O
inactive

Provide only the value of recorded fluorescence, % of fluorescent control for O=C(NO)c1ccccc1
inactive

Provide only the value of recorded fluorescence, % of fluorescent control for C[C@H]1O[C@@H](O[C@H]2[C@@H](O)C[C@H](O[C@H]3[C@@H](O)C[C@H](O[C@H]4CC[C@@]5(C)[C@H](CC[C@@H]6[C@@H]5C[C@@H](O)[C@]5(C)[C@@H](C7=CC(=O)OC7)CC[C@]65O)C4)O[C@@H]3C)O[C@@H]2C)C[C@H](O)[C@@H]1O
inactive
